study.system: P. falciparum apicoplast DNA polymerase (Pf-apPOL) (Plasmodium falciparum, UniProt Q8ILY1)
Sequence (Q8ILY1 entry or part of it): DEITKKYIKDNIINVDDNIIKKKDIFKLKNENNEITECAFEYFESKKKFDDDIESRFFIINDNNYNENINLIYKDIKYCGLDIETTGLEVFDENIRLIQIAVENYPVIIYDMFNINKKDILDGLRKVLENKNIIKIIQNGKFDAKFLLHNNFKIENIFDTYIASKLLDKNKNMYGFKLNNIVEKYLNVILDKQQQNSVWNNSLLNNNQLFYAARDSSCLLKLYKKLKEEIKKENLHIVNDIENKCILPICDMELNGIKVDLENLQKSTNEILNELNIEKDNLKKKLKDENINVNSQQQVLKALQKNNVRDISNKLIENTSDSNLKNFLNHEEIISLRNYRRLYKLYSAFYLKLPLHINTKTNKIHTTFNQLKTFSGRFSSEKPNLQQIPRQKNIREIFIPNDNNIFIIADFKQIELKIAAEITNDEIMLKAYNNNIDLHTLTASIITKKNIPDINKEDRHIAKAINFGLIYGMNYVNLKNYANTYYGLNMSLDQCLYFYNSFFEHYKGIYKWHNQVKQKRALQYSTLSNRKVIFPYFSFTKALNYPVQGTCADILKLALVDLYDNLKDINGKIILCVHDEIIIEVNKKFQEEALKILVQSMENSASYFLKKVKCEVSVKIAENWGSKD
experiment.notes: Fluorescence-based high-throughput DNA polymerase assay (molecular beacon), primary screen and dose-response;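 further: test concentration in µM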
Format: biochemical
experimental.setup: DRC-2; 180'; concentration 40
endpoint: % inhibition apPOL 180' (%)
Quick reminder: number only, in %, skip the unit.

Below: 10 compounds and their reported % inhibition apPOL 180'.
CCc1ccccc1NC(=O)c1ccc(-c2ncccc2NC(C)=O)cc1 : 70
Cl.NC(CO)C(=O)NNCc1ccc(O)c(O)c1O (stereo not drawn) : 71
COc1ccc(CNC(=O)Cn2nc3c(c2NC(=O)Cc2cccs2)CSC3)cc1 : 35
C=CC1=C(C)c2cc3[nH]c(cc4nc(cc5[nH]c(cc1n2)c(C)c5CCC(=O)O)C(CCC(=O)O)=C4C)c(C)c3C=C : 80
Cc1ccc(CCNC(=O)c2cnn3c(O)c(Cc4ccccc4F)c(C)nc23)cc1 : 62
COc1cccc(C(=O)N2CCc3c(nc4cc(-c5ccccc5)[nH]n4c3=O)C2)c1OC : 65
Cc1nc(/N=N/c2ccc(C(=O)[O-])cc2)c(COP(=O)([O-])[O-])c(C=O)c1O.[Na+].[Na+].[Na+] : 56
COc1ccc(C2CC(c3ccc(Cl)cc3Cl)Nc3nc(N)nn32)cc1OC (stereo not drawn) : 43
CCCCOC(=O)CCCCCN1C(=O)C(=Cc2ccc(OC)cc2)SC1=S : 76
O=C(Nc1cccc(C(=O)Nc2ccc(S(=O)(=O)[O-])c3cc(S(=O)(=O)[O-])cc(S(=O)(=O)[O-])c23)c1)Nc1cccc(C(=O)Nc2ccc(S(=O)(=O)[O-])c3cc(S(=O)(=O)[O-])cc(S(=O)(=O)[O-])c23)c1.[Na+].[Na+].[Na+].[Na+].[Na+].[Na+] : 80

Attention now turns to another entry.
Exercise: Recorded % inhibition apPOL 180' for `Nc1cc(Oc2ccc(O)c(N)c2)ccc1O` with P. falciparum apicoplast DNA polymerase (Pf-apPOL) (Plasmodium falciparum, UniProt Q8ILY1), please?
Solution: 74

====

study.system: bacteriophage T4 DNA polymerase (Enterobacteria phage T4, UniProt P04415)
Construct: made in house
Sequence (P04415 whole entry): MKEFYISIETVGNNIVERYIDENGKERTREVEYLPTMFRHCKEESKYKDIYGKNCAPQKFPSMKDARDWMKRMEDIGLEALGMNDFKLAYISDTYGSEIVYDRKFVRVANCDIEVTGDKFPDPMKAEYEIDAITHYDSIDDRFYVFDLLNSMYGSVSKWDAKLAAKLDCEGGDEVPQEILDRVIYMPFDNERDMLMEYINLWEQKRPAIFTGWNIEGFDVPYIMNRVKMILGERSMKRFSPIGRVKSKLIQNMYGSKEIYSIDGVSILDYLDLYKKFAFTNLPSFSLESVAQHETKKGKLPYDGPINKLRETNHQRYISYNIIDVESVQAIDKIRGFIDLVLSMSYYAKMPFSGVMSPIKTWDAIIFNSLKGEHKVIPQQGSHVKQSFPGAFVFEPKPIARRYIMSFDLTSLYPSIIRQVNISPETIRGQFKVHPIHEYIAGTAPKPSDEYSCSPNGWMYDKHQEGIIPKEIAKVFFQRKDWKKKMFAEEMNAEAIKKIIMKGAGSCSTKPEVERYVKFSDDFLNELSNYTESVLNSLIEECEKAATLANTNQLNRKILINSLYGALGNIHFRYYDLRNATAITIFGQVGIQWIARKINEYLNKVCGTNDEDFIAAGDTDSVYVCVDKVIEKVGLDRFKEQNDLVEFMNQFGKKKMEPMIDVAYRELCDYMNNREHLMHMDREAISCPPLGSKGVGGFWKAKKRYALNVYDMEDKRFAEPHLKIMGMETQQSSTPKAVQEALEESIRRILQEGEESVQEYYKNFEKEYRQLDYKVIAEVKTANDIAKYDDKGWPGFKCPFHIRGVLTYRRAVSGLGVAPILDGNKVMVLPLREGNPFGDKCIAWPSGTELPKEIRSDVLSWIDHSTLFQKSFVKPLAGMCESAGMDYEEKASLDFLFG
experiment.notes: Counter-screen against bacteriophage T4 DNA polymerase
Assay type: biochemical
experimental.setup: DRC-1; read at 10'; concentration 2.5
endpoint: % inhibition T4 10' 2.5 (%)
Quick reminder: number only, in %, skip the unit.

Below: 2 compounds and their reported % inhibition T4 10' 2.5.
Cc1cc2[nH]c(C(=O)Nc3ccc(F)cc3)c(CN3CCOCC3)c2s1 : 1.711
COc1ccccc1CC(=O)N1CCc2c(nc3cc(-c4ccccc4Cl)[nH]n3c2=O)C1 : -1.17

Exercise: So what's the measured % inhibition T4 10' 2.5 for this one? C#CC(C=CC)OC(=O)c1ccccc1C(=O)O (centres unmarked)
Solution: 9.3785

Exercise: Field entry: `Cc1cccc(-c2noc(C(=O)NNC(=O)C(Cl)(Cl)Cl)n2)c1`
Solution: 1.001

Exercise: Field entry: `Cc1nc(C)c2c(n1)N(CC1CCCCC1)C(=O)CC2`
Solution: -4.605

Exercise: Field entry: `CCCc1ccc(Oc2coc3cc(OC)ccc3c2=O)cc1`
Solution: 1.7455

Exercise: Field entry: COc1ccc(C2CC(c3ccc(Cl)cc3Cl)Nc3nc(N)nn32)cc1OC (centres unmarked)
Solution: 8.55

Exercise: Field entry: Cc1ccc(N2CCC(NC(=O)Cc3cccs3)C2=O)cc1C (centres unmarked)
Solution: -2.9635

Exercise: Field entry: `O=C(CCc1csc(NC(=O)Nc2ccccc2)n1)Nc1nc2ccccc2s1`
Solution: 0.07751

Exercise: Field entry: `O=C(c1ccccc1)N1CCc2c(nc3cc(-c4ccccc4)[nH]n3c2=O)C1`
Solution: -1.603
